Test system: HAP1 MTAP-deleted cell line
Protocol notes: Viability assay, MTAP-deleted cell line
Assay type: cell-based
Assay context: Homo sapiens, HAP1, viability assay, MTAP-deleted cell line; read-out: HAP1 MTAP deleted viability
pIC50: −log10 of the molar value.
Catalogue of pIC50 values

Compound | Tested on | pIC50
Cc1cc(NC(=O)C(=O)N2CCCCC2c2cccs2)cnc1N (centres unmarked) | HAP1 MTAP-deleted cell line | < 5.00
Cc1cc(NC(=O)C(=O)N2CCCC[C@@H]2c2ccncc2)cnc1N (single isomer, unassigned) | HAP1 MTAP-deleted cell line | < 5.00
C[C@H]1CC[C@H](c2ccc(F)cc2)N(C(=O)C(=O)Nc2cnc(OC(F)(F)F)c(C(N)=O)c2)C1 | HAP1 MTAP-deleted cell line | 5.00 to 6.00
NC(=O)c1cncc(NC(=O)C(=O)N2CCCC3(CCSCC3)C2)c1 | HAP1 MTAP-deleted cell line | < 5.00
CCc1cc(NC(=O)C(=O)N2C[C@H](C)CC[C@H]2c2ccn(-c3cc[nH]n3)n2)cnc1N (single isomer, unassigned) | HAP1 MTAP-deleted cell line | > 6.00
CCc1cc(NC(=O)C(=O)N2C[C@@H](C)[C@H](OC)C[C@@H]2c2cccc(OCCN(C)C)c2)cnc1N (racemic) | HAP1 MTAP-deleted cell line | > 6.00
CCc1cc(NC(=O)C(=O)N2C[C@@H](C)CC[C@@H]2c2cccc(Oc3cccnc3)c2)cnc1N | HAP1 MTAP-deleted cell line | > 6.00
Cc1ccc([C@@H]2CC[C@@H](C)CN2C(=O)C(=O)Nc2cncc(C)c2)cc1 (single isomer, unassigned) | HAP1 MTAP-deleted cell line | < 5.00
Cn1nccc1C1CCCCN1C(=O)C(=O)Nc1cncc(C(N)=O)c1 (centres unmarked) | HAP1 MTAP-deleted cell line | < 5.00
Cc1cc(NC(=O)C(=O)N2C[C@@H](C)[C@@H](C)C[C@H]2c2ccccc2)cnc1N (single isomer, unassigned) | HAP1 MTAP-deleted cell line | < 5.00
Cc1cncc(NC(=O)C(=O)N2C[C@@H](C)CC[C@H]2c2cccc(F)c2)c1 (single isomer, unassigned) | HAP1 MTAP-deleted cell line | < 5.00
CNc1ccc([C@@H]2CC[C@@H](C)CN2C(=O)C(=O)Nc2cncc(C(N)=O)c2)nc1 (racemic) | HAP1 MTAP-deleted cell line | 5.00 to 6.00
CC(=O)Nc1ccc([C@H]2CC[C@H](C)CN2C(=O)C(=O)Nc2cncc(C(N)=O)c2)cn1 (single isomer, unassigned) | HAP1 MTAP-deleted cell line | < 5.00
CCc1cc(NC(=O)C(=O)N2CC(C)CCC2c2ccc3sc(C4CCN(C)CC4C)nc3c2)cnc1N (racemic) [Compound 1098] | HAP1 MTAP-deleted cell line | > 6.00
